Target: PRMT5/MEP50 complex (Homo sapiens)
Construct: purchased Reaction Biology Corporation
Sequence (O14744 2-637 limits assumed): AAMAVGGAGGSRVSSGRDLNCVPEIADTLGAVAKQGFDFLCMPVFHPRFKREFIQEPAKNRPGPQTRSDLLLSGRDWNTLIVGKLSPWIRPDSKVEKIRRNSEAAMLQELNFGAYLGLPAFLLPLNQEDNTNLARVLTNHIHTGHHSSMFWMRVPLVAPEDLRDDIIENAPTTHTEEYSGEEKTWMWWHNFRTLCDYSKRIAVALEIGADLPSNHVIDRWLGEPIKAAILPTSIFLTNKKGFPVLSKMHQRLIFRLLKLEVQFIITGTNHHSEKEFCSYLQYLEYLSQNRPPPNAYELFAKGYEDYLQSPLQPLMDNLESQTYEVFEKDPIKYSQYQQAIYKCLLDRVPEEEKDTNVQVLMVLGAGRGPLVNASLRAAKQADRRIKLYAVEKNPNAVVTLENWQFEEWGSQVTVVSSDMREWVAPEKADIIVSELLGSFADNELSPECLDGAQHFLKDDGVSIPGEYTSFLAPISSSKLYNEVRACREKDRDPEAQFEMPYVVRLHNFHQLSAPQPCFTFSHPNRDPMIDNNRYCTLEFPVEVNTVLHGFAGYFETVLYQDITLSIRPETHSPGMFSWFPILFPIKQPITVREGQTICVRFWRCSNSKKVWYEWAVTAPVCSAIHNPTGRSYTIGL
Sequence (Q9BQA1 2-342 partner limits assumed): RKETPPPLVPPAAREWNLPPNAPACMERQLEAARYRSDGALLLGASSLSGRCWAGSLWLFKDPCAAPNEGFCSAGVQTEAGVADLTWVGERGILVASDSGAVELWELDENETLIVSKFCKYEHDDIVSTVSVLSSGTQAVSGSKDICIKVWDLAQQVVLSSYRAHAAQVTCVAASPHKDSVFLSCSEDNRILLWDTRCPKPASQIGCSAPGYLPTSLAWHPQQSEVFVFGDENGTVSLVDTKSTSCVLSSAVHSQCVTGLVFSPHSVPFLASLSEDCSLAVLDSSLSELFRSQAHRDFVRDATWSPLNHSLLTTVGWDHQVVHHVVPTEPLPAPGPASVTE
Assay: PRMT5:MEP50 HotSpot Assay (full-length histone H2A substrate, plus and minus MTA)
Assay type: biochemical
Conditions: in the absence of MTA, read-out: IC50
Procedure: The PRMT5 inhibitory activity of compounds of the present invention was determined using either a PRMT5:MEP50 FlashPlate Assay (Reaction Biology Corporation) or a PRMT5:MEP50 HotSpot Assay (Reaction Biology Corporation). The assay uses recombinant full-length hi stone H2A as the PRMT5 substrate. […] The reaction was stopped and transferred to filter paper for detection. The amount of tritiated H2A in each sample was determined using a scintillation counter.
pIC50: −log10 of the molar value.

molecule | pIC50
Cn1ncc(-c2ccc3c(=O)[nH]nc(CN)c3c2)c1-c1ccccc1C#N [Example 4-100] | < 5.00
